Target: T1, human transferrin receptor (human, UniProt P02786 89-760, limits assumed)
T1 construct: also called hTfR; human TfR
T1 sequence (P02786 89-760 limits assumed): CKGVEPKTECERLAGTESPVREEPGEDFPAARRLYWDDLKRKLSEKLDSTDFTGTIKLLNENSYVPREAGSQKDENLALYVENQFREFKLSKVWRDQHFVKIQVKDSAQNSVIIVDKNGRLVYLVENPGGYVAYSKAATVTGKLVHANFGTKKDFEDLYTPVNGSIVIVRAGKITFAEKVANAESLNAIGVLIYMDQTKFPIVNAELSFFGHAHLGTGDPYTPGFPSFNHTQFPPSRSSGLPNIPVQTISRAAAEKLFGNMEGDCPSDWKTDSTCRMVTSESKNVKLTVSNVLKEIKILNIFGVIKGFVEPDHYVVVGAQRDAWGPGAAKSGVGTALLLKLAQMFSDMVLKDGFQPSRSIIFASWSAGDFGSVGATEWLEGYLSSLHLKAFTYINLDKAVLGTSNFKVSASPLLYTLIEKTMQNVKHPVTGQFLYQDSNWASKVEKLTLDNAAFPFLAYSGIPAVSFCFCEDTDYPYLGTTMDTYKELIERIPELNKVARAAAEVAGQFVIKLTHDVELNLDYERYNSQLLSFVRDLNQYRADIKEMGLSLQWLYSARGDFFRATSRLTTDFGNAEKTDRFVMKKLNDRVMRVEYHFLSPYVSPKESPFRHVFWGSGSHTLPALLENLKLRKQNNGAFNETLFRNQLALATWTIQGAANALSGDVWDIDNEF
Assay: ELISA, plate-coated human TfR; mutant against WT
resultType: Fold-increase of EC50 (Reduced rate of binding affinity) (fold)
The reply should contain only the number, in fold.

## Task Output measured Fold-increase of EC50 (Reduced rate of binding affinity) for this item: anti-human transferrin receptor antibody 128.1 with VH Y27H mutation (antibody, V domains shown, Same vector format as WT (human IgG constant region with myc-His tag, human kappa CL); also called anti-TfR(VH Y27H)) VH: EVQLQQSGPELVKPGASMKISCKASGHSFTGYTMNWVKQSHGENLEWIGRINPHNGGTDYNQKFKDKAPLTVDKSSNTAYMELLSLTSEDSAVYYCARGYYYYSLDYWGQGTSVTVSS VL: QIVLTQSPAIMSASPGEKVTMTCSASSSIDYIHWYQQKSGTSPKRWIYDTSKLASGVPARFSGSGSGTSYSLTISSMEPEDAATYYCHQRNSYPWTFGGGTRLEIR
## Result 35
